Biological target: rat B1R (Rattus norvegicus)
Construct: expressed in transfected cells; host or cells: CHO K1 cells
Test: FLIPR Ca2+ functional study on bradykinin receptor 1 (rB1R CHO K1 cells)
Assay type: cell-based
Conditions: CHO-K1, % inhibition rat B1R at 10 μM, read-out: % inh. (rat B1R) 10 μM
Text: The agonistic or antagonistic activity of substances can be quantified on the bradykinin receptor 1 (B1R) of the species human and rat using ectopically expressing cell lines (CHO K1 cells) and with the aid of a Ca^2+-sensitive dye (Fluo-4) using a fluorescent imaging plate reader (FLIPR). […] The agonistic or antagonistic activity of substances can be determined on the bradykinin receptor 1 (B1R) of the species human and rat using the following assay. […]
recorded-metric: inhibition at 10 µM (%)
// units = %; emit number, no label

For "COc1cc(C)c(S(=O)(=O)N2CCC[C@H]2COc2ccnc(N3CCC(O)(c4cccnc4)CC3)n2)c(C)c1" , what is its reported inhibition at 10 µM?
79

For "COc1cc(C)c(S(=O)(=O)N2CC(Oc3nccc(N(C)CCN4CCC(c5ccccc5)(N(C)C)CC4)n3)C2)c(C)c1" , what is its reported inhibition at 10 µM?
81

For COc1cc(C)c(S(=O)(=O)N(C)C(COc2nccc(N3CCC(Oc4ccccn4)CC3)n2)c2ccccc2)c(C)c1 (stereo not drawn) , what is its reported inhibition at 10 µM?
81

###

target: rat B1R (Rattus norvegicus); construct: expressed in transfected cells; host or cells: CHO K1 cells; test: FLIPR Ca2+ functional study on bradykinin receptor 1 (rB1R CHO K1 cells); type: cell-based; settings: CHO-K1, % inhibition rat B1R at 10 μM, read-out: % inh. (rat B1R) 10 μM
Tag: true if measured inhibition at 10 µM is not below 80%, false if it is.

Would you say CCCCC1(N(C)C)CCN(CCN(C)c2nccc(OCC3CCCCN3S(=O)(=O)c3c(C)cc(OC)cc3C)n2)CC1 (stereo not shown) shows inhibition at 10 µM at minimum 80%?
true

Would you say "COc1cc(C)c(S(=O)(=O)N2CCC[C@H]2COc2nccc(N3CCC4(CCN(Cc5ccccc5)C4=O)CC3)n2)c(C)c1" shows inhibition at 10 µM at minimum 80%?
true

Would you say "COc1cc(C)c(S(=O)(=O)N(C)CCOc2ccnc(N(C)CCN3CCC(c4ccccc4)(N4CCCC4)CC3)n2)c(C)c1" shows inhibition at 10 µM at minimum 80%?
true

Would you say "COc1cc(C)c(S(=O)(=O)N2CC(Oc3ccnc(N4CCC(O)(c5cccnc5)CC4)n3)C2)c(C)c1" shows inhibition at 10 µM at minimum 80%?
false

Would you say "COc1cc(C)c(S(=O)(=O)N2CCC[C@H]2COc2ccnc(N3CCC(c4ccccc4)(N(C)C)CC3)n2)c(C)c1" shows inhibition at 10 µM at minimum 80%?
false

###

Molecular target: rat B1R (Rattus norvegicus)
Construct: expressed in transfected cells; host or cells: CHO K1 cells
Sequence (P97583 1-337): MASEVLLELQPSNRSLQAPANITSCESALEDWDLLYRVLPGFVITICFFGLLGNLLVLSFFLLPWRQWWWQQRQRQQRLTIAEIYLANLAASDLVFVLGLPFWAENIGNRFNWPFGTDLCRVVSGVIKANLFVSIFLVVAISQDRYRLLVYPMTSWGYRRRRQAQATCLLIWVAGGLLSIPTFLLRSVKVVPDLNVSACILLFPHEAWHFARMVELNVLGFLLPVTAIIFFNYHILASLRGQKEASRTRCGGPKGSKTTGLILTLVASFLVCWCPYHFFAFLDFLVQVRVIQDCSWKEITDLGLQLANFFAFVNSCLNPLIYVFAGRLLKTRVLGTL
Experiment: FLIPR Ca2+ functional study on bradykinin receptor 1 (rB1R CHO K1 cells)
Format: cell-based
Conditions: CHO-K1, % inhibition rat B1R at 10 μM, read-out: % inh. (rat B1R) 10 μM
recorded-metric: inhibition at 10 µM (%)
// units = %; emit number, no label

So what inhibition at 10 µM did "COc1cc(C)c(S(=O)(=O)N(CCCOc2nccc(N3CCC4(CCN(c5ccncc5)CC4)CC3)n2)C2CC2)c(C)c1" get with rat B1R (Rattus norvegicus)?
104

So what inhibition at 10 µM did COc1cc(C)c(S(=O)(=O)N2CCCCC2COc2nccc(N(C)CCN3CCC(O)(c4cccnc4)CC3)n2)c(C)c1 (stereo not shown) get with rat B1R (Rattus norvegicus)?
95

So what inhibition at 10 µM did "COc1cc(C)c(S(=O)(=O)N(C)CCOc2nccc(N3CCC4(CCN(c5ccncc5)CC4)CC3)n2)c(C)c1" get with rat B1R (Rattus norvegicus)?
99

So what inhibition at 10 µM did COc1cc(C)c(S(=O)(=O)N2CCC[C@@H]2COc2nccc(N3CCCC3Cc3ccccn3)n2)c(C)c1 (stereo partly shown) get with rat B1R (Rattus norvegicus)?
83

So what inhibition at 10 µM did "COc1cc(C)c(S(=O)(=O)N(CCOc2nccc(N3CCC4(CCN(c5ccncc5)CC4)C3)n2)C2CC2)c(C)c1" get with rat B1R (Rattus norvegicus)?
102

So what inhibition at 10 µM did "COc1cc(C)c(S(=O)(=O)N2CCC[C@H]2COc2nccc(N3CCC4(CC3)C(=O)NCN4c3ccccc3)n2)c(C)c1" get with rat B1R (Rattus norvegicus)?
99

So what inhibition at 10 µM did COc1cc(C)c(S(=O)(=O)N(C)C(COc2nccc(N3CCC(Oc4ccncc4)CC3)n2)c2ccccc2)c(C)c1 (stereo not shown) get with rat B1R (Rattus norvegicus)?
101

So what inhibition at 10 µM did "COc1cc(C)c(S(=O)(=O)N2CC(Oc3ccnc(N4CCCN(Cc5ccccn5)CC4)n3)C2)c(C)c1" get with rat B1R (Rattus norvegicus)?
58

So what inhibition at 10 µM did "COc1cc(C)c(S(=O)(=O)N(CCOc2ccnc(N3CCC(Oc4ccncc4)CC3)n2)C2CC2)c(C)c1" get with rat B1R (Rattus norvegicus)?
97

So what inhibition at 10 µM did COc1cc(C)c(S(=O)(=O)N2CCCCC2COc2nccc(N3CCC(C)(N4CCOCC4)CC3)n2)c(C)c1 (stereo not shown) get with rat B1R (Rattus norvegicus)?
88

So what inhibition at 10 µM did "COc1cc(C)c(S(=O)(=O)N(C)CCOc2nccc(N3CCN(C4CCN(C)CC4)CC3)n2)c(C)c1" get with rat B1R (Rattus norvegicus)?
97

So what inhibition at 10 µM did COc1cc(C)c(S(=O)(=O)N(C)C(COc2nccc(N3CCC4(CCN(Cc5ccccc5)C4=O)CC3)n2)c2ccccc2)c(C)c1 (stereo not shown) get with rat B1R (Rattus norvegicus)?
81

So what inhibition at 10 µM did "CCCCC1(N(C)C)CCN(CCN(C)c2ccnc(OCCN(C)S(=O)(=O)c3c(C)cc(OC)cc3C)n2)CC1" get with rat B1R (Rattus norvegicus)?
86

So what inhibition at 10 µM did "COc1cc(C)c(S(=O)(=O)N2CC(Oc3nccc(N4CCN(CC5CCN(C)CC5)CC4)n3)C2)c(C)c1" get with rat B1R (Rattus norvegicus)?
92

So what inhibition at 10 µM did "COc1cc(C)c(S(=O)(=O)N(C)CCOc2nccc(N3CCC(N4CCN(C)CC4)CC3)n2)c(C)c1" get with rat B1R (Rattus norvegicus)?
97

So what inhibition at 10 µM did "Cc1cccc(Cl)c1S(=O)(=O)N(CCOc1ccnc(N2CCC3(CCN(c4ccncc4)CC3)CC2)n1)C1CC1" get with rat B1R (Rattus norvegicus)?
92
